TESTED_ON: 4'-phosphopantetheinyl transferase ffp (Bacillus subtilis) (UniProt Q9F4F7)
ASSAY_PROCEDURE: qHTS Assay for Inhibitors of Bacillus subtilis Sfp phosphopantetheinyl transferase (PPTase);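 note: the enzyme is Sfp with the accession as filed and its product quenches rhodamine fluorescence; 0% = enzyme reaction without inhibitor and -100% = no enzyme wells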
TEST_PARAMETERS: Biochemical Sfp PPTase activity
Screen size: about 310,000 compounds; about 11,000 (3.5%) were called active. Another 4% or so got no clear call; they are omitted. Many of the other results were omitted from the sample, so actives are more common in it than they were.
Recorded largest response in the series, negative = inhibition, one value per entry.
Output spec: scalar in %, unitless text.

stdin: I'd like to know its largest response in the series, negative = inhibition. The molecule in question is `COc1cc(C(=S)N2CCOCC2)cc(OC)c1OC(=O)c1ccc([N+](=O)[O-])cc1[N+](=O)[O-]`
stdout: 7.82

stdin: Could you tell me which largest response in the series, negative = inhibition is on file for `O=C(Nc1ccc(C(=O)N2CCCCC2)cc1)c1cccc([N+](=O)[O-])c1` ?
stdout: 17.2

stdin: Fill blank: measured largest response in the series, negative = inhibition of the molecule COc1cc(C2C(C(=O)c3ccco3)=C(O)C(=O)N2c2cc(C)on2)ccc1OCc1ccccc1 (stereo not drawn) is ____.
stdout: 0.107

stdin: What largest response in the series, negative = inhibition value was documented for this molecule, `O=C(Nc1ccccc1)Nc1ccc(C(F)(F)F)cn1` ?
stdout: 11.2

stdin: Please give the measured largest response in the series, negative = inhibition for this molecule: `Cc1ccc(C)c(SCc2nc3sc(C(=O)O)c(C)c3c(=O)[nH]2)c1`
stdout: -17.2

stdin: Item under review: CC(C)C(=O)N1CC(=O)Nc2ccc(F)cc2C1c1ccc(F)cc1 (stereo not drawn) . Reported largest response in the series, negative = inhibition?
stdout: 17.9

stdin: Given the entry `O=C(Oc1ccccc1Cl)c1ccc(N2CCOCC2)c([N+](=O)[O-])c1` , report its measured largest response in the series, negative = inhibition.
stdout: -20.5

stdin: I am curious: what largest response in the series, negative = inhibition value has been reported for COc1cc(C2NC(=O)NC(c3ccccc3)=C2C(C)=O)c(Br)cc1OCC(N)=O (stereo not drawn) ?
stdout: 18.5

stdin: largest response in the series, negative = inhibition lookup needed for `Cc1cc(=O)cc(C)[nH]1` , thanks.
stdout: 15

====

TESTED_ON: 4'-phosphopantetheinyl transferase ffp (Bacillus subtilis) (UniProt Q9F4F7)
ASSAY_PROCEDURE: qHTS Assay for Inhibitors of Bacillus subtilis Sfp phosphopantetheinyl transferase (PPTase);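 note: the enzyme is Sfp with the accession as filed and its product quenches rhodamine fluorescence; 0% = enzyme reaction without inhibitor and -100% = no enzyme wells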
TEST_PARAMETERS: Biochemical Sfp PPTase activity
Excerpt: Assay Submitter: Michael Burkart, University of California, San Diego Screening Center PI: Austin, C.P. Screening Center: NIH Chemical Genomics Center [NCGC] […] In search of small molecule Sfp-PPTase inhibitors, a fluorescence quenching assay was developed for detection of Bacillus subtilis Sfp-PPTase enzymatic activity in a miniaturized high-throughput format. […]
Screen size: about 310,000 compounds; about 11,000 (3.5%) were called active. Inconclusive results (about 4%) are left out. The list comes from a sample in which actives are over-represented; it also holds close analogues and randomly drawn compounds.
# largest response in the series, negative = inhibition values compiled below
# value in %; strip the unit string

COc1ccc2c(C(=O)c3ccc(C)cc3)n(CCC(N)=O)[n+]([O-])c2c1 :: -4.94
Cc1cc(C)cc(NC(=O)C2CCN(c3nc(C)cc(C)n3)CC2)c1 :: 9.84
CC(=O)OC1C([N+]2(C)CCCCC2)C[C@H]2C3CC[C@H]4C[C@H](OC(C)=O)C([N+]5(C)CCCCC5)CC4(C)C3CCC12C (stereo partly specified) :: 11.5
Cc1ccc(S(=O)(=O)N(Cc2ccccc2)c2ccccn2)cc1[N+](=O)[O-] :: 11.4

Let us move to another entry and its largest response in the series, negative = inhibition.
stdin: What measured largest response in the series, negative = inhibition is associated with Cc1c(C(=O)N2CCCC2)c(S(=O)(=O)NCC(C)c2ccccc2)c(C)n1C (stereo unspecified) on 4'-phosphopantetheinyl transferase ffp (Bacillus subtilis) (UniProt Q9F4F7)?
stdout: -2.67

====

TESTED_ON: 4'-phosphopantetheinyl transferase ffp (Bacillus subtilis) (UniProt Q9F4F7)
ASSAY_PROCEDURE: qHTS Assay for Inhibitors of Bacillus subtilis Sfp phosphopantetheinyl transferase (PPTase);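 note: the enzyme is Sfp with the accession as filed and its product quenches rhodamine fluorescence; 0% = enzyme reaction without inhibitor and -100% = no enzyme wells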
TEST_PARAMETERS: Biochemical Sfp PPTase activity
Screen size: about 310,000 compounds; about 11,000 (3.5%) were called active. About 4% were inconclusive and are not listed. For the sample, actives were picked, then their nearest neighbours and some compounds at random.
READOUT_NAME: largest response in the series, negative = inhibition (%)
Express the result in % but write the number alone.

Here's what some known entries look like.
FC(F)Oc1ccc(NC(=S)NCc2ccco2)cc1Cl :: -3.21
COc1cccc(N(CC(=O)NC2CCCC2)C(=O)CCCC(=O)Nc2ccccn2)c1 :: 7.32
COc1ccc(NC(=O)CSc2nncc(=O)n2N)cc1OC :: 9.26
O=C(c1ccccc1)N1CCN(c2ccc([N+](=O)[O-])c(NCc3ccco3)c2)CC1 :: 10.8
CCN1/C(=C/c2ccc3ccc(C)cc3[n+]2CC)Sc2ccccc21 :: -8.02

stdin: Item `O=C(CCN1c2ccccc2Sc2ccccc21)Nc1ccccc1` has what recorded largest response in the series, negative = inhibition?
stdout: -1.89

stdin: For the molecule shown here, `COc1ccc2c(c1)O[C@@H](c1ccc3c(c1)OCO3)[C@H](OC(=O)NCc1ccco1)C2=O` , give the reported largest response in the series, negative = inhibition.
stdout: 1.2

stdin: Tell me the measured largest response in the series, negative = inhibition of `COc1cccc(NC(=S)NCc2ccco2)c1` , please.
stdout: 16.1

stdin: Entry COc1ccc(C2/C(=C(/O)c3ccc4c(c3)CC(C)O4)C(=O)C(=O)N2Cc2ccncc2)cc1 (stereo unspecified) has what largest response in the series, negative = inhibition?
stdout: -0.196

stdin: # largest response in the series, negative = inhibition lookup, item `Cc1c(Cl)cccc1NC(=S)NCc1ccc2c(c1)OCO2`
stdout: 0.527

stdin: I would be grateful if you could share the reported largest response in the series, negative = inhibition for `O=C(NCc1ccco1)c1ccc([N+](=O)[O-])cc1Cl` .
stdout: 22.8

====

TESTED_ON: 4'-phosphopantetheinyl transferase ffp (Bacillus subtilis)
ASSAY_PROCEDURE: qHTS Assay for Inhibitors of Bacillus subtilis Sfp phosphopantetheinyl transferase (PPTase);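 note: the enzyme is Sfp with the accession as filed and its product quenches rhodamine fluorescence; 0% = enzyme reaction without inhibitor and -100% = no enzyme wells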
TEST_PARAMETERS: Biochemical Sfp PPTase activity
Excerpt: Assay Submitter: Michael Burkart, University of California, San Diego Screening Center PI: Austin, C.P. Screening Center: NIH Chemical Genomics Center [NCGC] […] In search of small molecule Sfp-PPTase inhibitors, a fluorescence quenching assay was developed for detection of Bacillus subtilis Sfp-PPTase enzymatic activity in a miniaturized high-throughput format. […]
Hit rate of the full screen: of about 310,000 compounds, about 11,000 (3.5%) were called active. Another 4% or so got no clear call; they are omitted. The entries come from a sample that favours actives as a whole.
READOUT_NAME: largest response in the series, negative = inhibition (%)
Please give a number only; it is taken to be in %.

COC(=O)c1ccc(NC(=O)CSc2nnc(CNc3ccc(OC)cc3)n2C)cc1 :: 7.16
Cc1ccc(CNC(=O)CCC(=O)N2CC(C)Sc3ccccc32)cc1 (stereo unspecified) :: 23.4

stdin: For the molecule Cc1ccc(C)c(S(=O)(=O)N2CCCOC2CNC(=O)C(=O)NC2CCCCC2)c1 (stereo unspecified) , what largest response in the series, negative = inhibition is on record?
stdout: 11.5

stdin: What value of largest response in the series, negative = inhibition has been reported for the following molecule? C#CCC(C(=O)OC)(C(=O)OC)C(C[N+](=O)[O-])c1ccccc1 (stereo unspecified)
stdout: -5.44

stdin: Fill in the blank: the reported largest response in the series, negative = inhibition of `C=CCOc1ccc(/C=C/C(=O)OCC(=O)NC2CCCCCC2)cc1` is ____.
stdout: 16.7

stdin: Suppose we examine the molecule `O=C(c1ccccc1F)N(Cc1ccccc1)Cc1ccccc1` ; what largest response in the series, negative = inhibition value has been reported?
stdout: 9.85

stdin: Form field: reported largest response in the series, negative = inhibition of `Nc1ccccc1SCc1cc([N+](=O)[O-])cc2c1OCOC2`
stdout: -29.9

stdin: # query: largest response in the series, negative = inhibition of entry `COc1ccc(OC)c(CCNC(=O)c2nn(C)c3c2CS(=O)(=O)c2ccccc2-3)c1`
stdout: 15.7

stdin: Item under review: `C[C@H]1Cc2c(COc3ccccc3)nc3c(c2CO1)CN(C(=O)NCc1ccco1)CC3` . Reported largest response in the series, negative = inhibition?
stdout: 2.41

stdin: For the molecule O=C(NCc1ccco1)C(c1ccncc1)N(C(=O)Cn1nnc2ccccc21)c1ccccc1 (stereo unspecified) , what largest response in the series, negative = inhibition is on record?
stdout: 18

stdin: Which largest response in the series, negative = inhibition is reported for this molecule? `O=P(O)(O)OC[C@H](O)CO`
stdout: 16.8

Data origin, for the record: PubChem BioAssay AID1490
